- System: Human immunodeficiency virus 1
- experimental_protocol: Antiviral activity against HIV1 RES056 harboring reverse transcriptase K103N/Y181C double mutant infected in human MT4 cells assessed as inhibition of virus-induced cytotoxicity after 5 days by MTT assay
- Format: functional, organism-based
- protocol_conditions: Human immunodeficiency virus 1, RES056, MT4, 120 h
EC50 listing for selected compounds.
measured_parameter: EC50

compound: Cc1cc(C#N)cc(C)c1Oc1cc(Cl)nc(Nc2ccc(CN3CCOCC3)cc2)c1
result: > 6.9 µM
--
compound: Cc1ccnc2c1NC(=O)c1cccnc1N2C1CC1 [NEVIRAPINE]
result: > 15 µM
--
compound: Cc1cc(/C=C/C#N)cc(C)c1Oc1ccnc(Nc2ccc(CN3CCN(S(C)(=O)=O)CC3)cc2)n1
result: 0.79 µM
--
compound: Cc1cc(C)c(Oc2nc(N)nc(Nc3ccc(CN4CCOCC4)cc3)n2)c(C)c1
result: > 12.9 µM
--
compound: Cc1cc(C#N)cc(C)c1Oc1ccnc(Nc2ccc(CN3CCC(NC(=O)OC(C)(C)C)CC3)cc2)n1
result: > 4.34 µM
--
compound: Cc1cc(C#N)cc(C)c1Oc1ccnc(Nc2ccc(CN3CCC(NS(C)(=O)=O)CC3)cc2)n1
result: > 18.1 µM
--
compound: Cc1cc(C#N)cc(C)c1Oc1ccnc(Nc2ccc(CN3CCC(NS(N)(=O)=O)CC3)cc2)n1
result: > 3.72 µM
--
compound: O=C1Nc2ccc(Cl)cc2[C@@](C#CC2CC2)(C(F)(F)F)O1 [EFAVIRENZ]
result: 0.24 µM
--
compound: Cc1cc(/C=C/C#N)cc(C)c1Oc1ccnc(Nc2ccc(CN3CCC(NS(C)(=O)=O)CC3)cc2)n1
result: > 6.99 µM

----------
- experimental_protocol: Cytotoxicity against human MT4 cells assessed as reduction in cell viability after 5 days by MTT assay
- Format: cell-based
measured_parameter: CC50 at 120 h (µM)

smiles_notation: Nc1ccn([C@@H]2CS[C@H](CO)O2)c(=O)n1
measured_parameter: CC50 at 120 h
value_comparator: >
readout_number: 87.2
--
smiles_notation: Cc1cc(C#N)cc(C)c1Oc1ccnc(Nc2ccc(CN3CCN(S(C)(=O)=O)CC3)cc2)n1
measured_parameter: CC50 at 120 h
value_comparator: =
readout_number: 3.43
--
smiles_notation: Cc1cc(/C=C/C#N)cc(C)c1Oc1ccnc(Nc2ccc(CN3CCC(NS(C)(=O)=O)CC3)cc2)n1
measured_parameter: CC50 at 120 h
value_comparator: =
readout_number: 6.99
--
smiles_notation: Cc1cc(C#N)cc(C)c1Oc1ccnc(Nc2ccc(CN3CCC(NS(N)(=O)=O)CC3)cc2)n1
measured_parameter: CC50 at 120 h
value_comparator: =
readout_number: 3.72
--
smiles_notation: Cc1cc(/C=C/C#N)cc(C)c1Oc1ccnc(Nc2ccc(CN3CCC(NC(=O)OC(C)(C)C)CC3)cc2)n1
measured_parameter: CC50 at 120 h
value_comparator: =
readout_number: 3.55

----------
- experimental_protocol: Cytotoxicity against human MT4 cells assessed as reduction in cell viability after 5 days by MTT assay
- Format: cell-based
measured_parameter: CC50 at 120 h (µM)

compound: Cc1cc(/C=C/C#N)cc(C)c1Oc1ccnc(Nc2ccc(CN3CCN(C(=O)OC(C)(C)C)CC3)cc2)n1
value_comparator: =
readout_number: 3.04

compound: Cc1cc(C)c(Oc2nc(N)nc(Nc3ccc(CN4CCOCC4)cc3)n2)c(C)c1
value_comparator: ≥
readout_number: 12.9

compound: Cc1ccnc2c1NC(=O)c1cccnc1N2C1CC1 [NEVIRAPINE]
value_comparator: >
readout_number: 15

compound: Cc1cc(C#N)cc(C)c1Oc1ccnc(Nc2ccc(CN3CCC(NC(=O)OC(C)(C)C)CC3)cc2)n1
value_comparator: =
readout_number: 4.34

compound: Cc1cc(C#N)cc(C)c1Oc1ccnc(Nc2ccc(CN3CCC(NS(C)(=O)=O)CC3)cc2)n1
value_comparator: =
readout_number: 18.1

compound: O=C1Nc2ccc(Cl)cc2[C@@](C#CC2CC2)(C(F)(F)F)O1 [EFAVIRENZ]
value_comparator: >
readout_number: 6.34

compound: Cc1cc(/C=C/C#N)cc(C)c1Nc1ccnc(Nc2ccc(C#N)cc2)n1 [RILPIVIRINE]
value_comparator: =
readout_number: 4.38

compound: Cc1cn([C@H]2C[C@H](N=[N+]=[N-])[C@@H](CO)O2)c(=O)[nH]c1=O [ZIDOVUDINE]
value_comparator: >
readout_number: 7.48

compound: Cc1cc(/C=C/C#N)cc(C)c1Oc1ccnc(Nc2ccc(CN3CCN(S(C)(=O)=O)CC3)cc2)n1
value_comparator: ≥
readout_number: 173

----------
- assayed_target: Human immunodeficiency virus type 1 reverse transcriptase (Human immunodeficiency virus 1, UniProt Q72547)
Here the recorded log10 IC50 is given for each entry.
measured_parameter: log10 IC50 (log10 of the value in µM)

smiles_notation: Cc1cc(C#N)cc(C)c1Oc1ccnc(Nc2ccc(CN3CCC(NS(N)(=O)=O)CC3)cc2)n1
log10 IC50: -0.82

smiles_notation: Cc1cc(C)c(Oc2nc(N)nc(Nc3ccc(CN4CCOCC4)cc3)n2)c(C)c1
log10 IC50: -0.35

smiles_notation: Cc1cc(C#N)cc(C)c1Oc1ccnc(Nc2ccc(CN3CCC(NC(=O)OC(C)(C)C)CC3)cc2)n1
log10 IC50: -0.38

smiles_notation: Cc1cc(/C=C/C#N)cc(C)c1Oc1ccnc(Nc2ccc(CN3CCN(S(C)(=O)=O)CC3)cc2)n1
log10 IC50: -1.17

smiles_notation: Cc1cc(C#N)cc(C)c1Oc1ccnc(Nc2ccc(CNC3CCN(C(=O)OC(C)(C)C)CC3)cc2)n1
log10 IC50: -0.56

smiles_notation: Cc1cc(C#N)cc(C)c1Oc1ccnc(Nc2ccc(CN3CCN(S(C)(=O)=O)CC3)cc2)n1
log10 IC50: -1.31

smiles_notation: Cc1cc(C#N)cc(C)c1Oc1ccnc(Nc2ccc(CN3CCC(NS(C)(=O)=O)CC3)cc2)n1
log10 IC50: -1.10

smiles_notation: Cc1cc(/C=C/C#N)cc(C)c1Oc1ccnc(Nc2ccc(CN3CCN(C(=O)OC(C)(C)C)CC3)cc2)n1
log10 IC50: -0.53

smiles_notation: Cc1cc(/C=C/C#N)cc(C)c1Oc1ccnc(Nc2ccc(CN3CCC(NS(C)(=O)=O)CC3)cc2)n1
log10 IC50: -1.12

smiles_notation: Cc1cc(/C=C/C#N)cc(C)c1Oc1ccnc(Nc2ccc(CN3CCC(NC(=O)OC(C)(C)C)CC3)cc2)n1
log10 IC50: -0.30

smiles_notation: Cc1cc(C#N)cc(C)c1Oc1ccnc(Nc2ccc(CN3CCOCC3)cc2)n1
log10 IC50: -1.38

----------
- Tested on: Human immunodeficiency virus 1
- experimental_protocol: Antiviral activity against HIV1 RES056 harboring reverse transcriptase K103N/Y181C double mutant infected in human MT4 cells assessed as inhibition of virus-induced cytotoxicity after 5 days by MTT assay
- Assay type: functional, organism-based
- protocol_conditions: Human immunodeficiency virus 1, RES056, MT4, 120 h
pEC50: −log10 of the molar value.

smiles_notation: Cc1cc(C#N)cc(C)c1Oc1ccnc(Nc2ccc(CNC3CCN(C(=O)OC(C)(C)C)CC3)cc2)n1
assayed_target: Human immunodeficiency virus 1
pEC50: < 5.45
//
smiles_notation: Cc1cc(C#N)cc(C)c1Oc1ccnc(Nc2ccc(CN3CCOCC3)cc2)n1
assayed_target: Human immunodeficiency virus 1
pEC50: < 4.64
//
smiles_notation: Cc1cc(C#N)cc(C)c1Oc1nc(Nc2ccc(C#N)cc2)nc(N)c1Br
assayed_target: Human immunodeficiency virus 1
pEC50: 7.30
//
smiles_notation: Cc1cc(/C=C/C#N)cc(C)c1Oc1ccnc(Nc2ccc(CN3CCN(C(=O)OC(C)(C)C)CC3)cc2)n1
assayed_target: Human immunodeficiency virus 1
pEC50: < 5.52
//
smiles_notation: Cc1cc(/C=C/C#N)cc(C)c1Oc1ccnc(Nc2ccc(CN3CCC(NC(=O)OC(C)(C)C)CC3)cc2)n1
assayed_target: Human immunodeficiency virus 1
pEC50: < 5.45
//
smiles_notation: Cc1cn([C@H]2C[C@H](N=[N+]=[N-])[C@@H](CO)O2)c(=O)[nH]c1=O
assayed_target: Human immunodeficiency virus 1
pEC50: 7.82
//
smiles_notation: Cc1cc(C#N)cc(C)c1Oc1ccnc(Nc2ccc(CN3CCN(S(C)(=O)=O)CC3)cc2)n1
assayed_target: Human immunodeficiency virus 1
pEC50: < 5.46

----------
- experimental_protocol: Selectivity index, ratio of CC50 for human MT4 cells to EC50 for HIV1 RES056 harboring reverse transcriptase K103N/Y181C double mutant infected in human MT4 cells
measured_parameter: selectivity ratio

smiles_notation: Cc1cn([C@H]2C[C@H](N=[N+]=[N-])[C@@H](CO)O2)c(=O)[nH]c1=O
measured_parameter: selectivity ratio
result: > 515
